Assay: Inhibition of Aspergillus niger amyloglucosidase
# IC50 listing for each entry below
Property Name: IC50

Record Smiles	Reported
C[C@@H]1[C@@H](O)[C@@H](O)[C@@H]2[C@H](O)[C@H](O)[C@@H](CO)N21	95.5 µM
OC[C@@H]1[C@@H](O)[C@H](O)[C@H]2C[C@@H](O)CN12	4.5 µM
C[C@H]1[C@H](O)C[C@@H]2[C@@H](O)[C@H](O)[C@@H](CO)N21	39 µM
OC[C@@H]1[C@@H](O)[C@H](O)[C@H]2[C@@H](O)CCN21	5.8 µM
C[C@@H]1C[C@H](O)[C@@H]2[C@@H](O)[C@H](O)[C@@H](CO)N21	89 µM

====

Test: Inhibition of rice alpha-glucosidase
Set-up: species or system Oryza sativa

Record Smiles	IC50 / µM
C[C@@H]1[C@H](O)[C@H](O)[C@@H]2[C@H](O)[C@H](O)[C@@H](CO)N21	33.7

====

Assay: Inhibition of rat intestinal maltase
pIC50: −log10 of the molar value.

Record Smiles	pIC50
C[C@@H]1[C@H](O)[C@H](O)[C@@H]2[C@H](O)[C@H](O)[C@@H](CO)N21	4.11

Where these numbers come from: ChEMBL document CHEMBL4330161
